# SYSTEM: HCV NS3/4A protease genotype 1b (Hepatitis C virus genotype 1b, UniProt P26663)
# ASSAY_TEXT: HCV NS3/4A protease time-resolved fluorescence (TRF) assay, Ki against genotype 1b
# Format: biochemical
# MEASUREMENT_CONTEXT: IC50 [gt-1b] (nM), NS3/4A genotype 1b, enzyme 0.2 nM; K+ salt
REPORTED_METRIC: IC50 (nM)
Hi! Could you send only the number? It should be in nM, unit omitted.

[[record]]
sample_smiles = "CC1(S(=O)(=O)NC(=O)[C@@]23C[C@H]2/C=C\\CCCCC[C@H](NC(=O)OC2CCCC2)C(=O)N2C[C@@]4(CCc5c(c(C(F)(F)F)nc6ccccc56)O4)C[C@H]2C(=O)N3)CC1"
readout_value = 0.011

[[record]]
sample_smiles = "CC(C)COC(=O)N[C@H]1CCCCC/C=C\\[C@@H]2C[C@@]2(C(=O)NS(=O)(=O)C2(C)CC2)NC(=O)[C@@H]2C[C@]3(CCc4c(c(C(F)(F)F)nc5ccccc45)O3)CN2C1=O"
readout_value = 0.026

[[record]]
sample_smiles = "COc1ccc2nc(C)c3c(c2c1)CC[C@]1(C[C@H]2C(=O)N[C@]4(C(=O)NS(=O)(=O)C5(C)CC5)C[C@H]4/C=C\\CCCCC[C@H](NC(=O)OC4(C)CCC4)C(=O)N2C1)O3"
readout_value = 0.009

[[record]]
sample_smiles = "Cc1nc2ccc(OC(F)F)cc2c2c1O[C@]1(CC2)C[C@H]2C(=O)N[C@]3(C(=O)NS(=O)(=O)C4(C)CC4)C[C@H]3/C=C\\CCCCC[C@H](NC(=O)OC3CCCC3)C(=O)N2C1"
readout_value = 0.003

[[record]]
sample_smiles = "COc1ccc2nc(C)c3c(c2c1)[C@H](F)C[C@]1(C[C@H]2C(=O)N[C@]4(C(=O)NS(=O)(=O)C5(C)CC5)C[C@H]4/C=C\\CCCCC[C@H](NC(=O)O[C@@H](C)C(C)C)C(=O)N2C1)O3"
readout_value = 0.01

[[record]]
sample_smiles = "COc1ccc2nc(C)c3c(c2c1)C(F)(F)C[C@]1(C[C@H]2C(=O)N[C@]4(C(=O)NS(=O)(=O)C5(C)CC5)C[C@H]4/C=C\\CCCCC[C@H](NC(=O)O[C@H](C)C(C)C)C(=O)N2C1)O3"
readout_value = 0.007


Asked: Need IC50 of `COc1ccc2nc(C)c3c(c2c1)C(F)(F)C[C@]1(C[C@H]2C(=O)N[C@]4(C(=O)NS(=O)(=O)C5(C)CC5)C[C@H]4/C=C\CCCCC[C@H](NC(=O)OCC(C)C)C(=O)N2C1)O3` , thanks.
Given back: 0.014

Asked: Next entry: `COc1ccc2nc(C)c3c(c2c1)CC[C@]1(C[C@H]2C(=O)N[C@]4(C(=O)NS(=O)(=O)C5(C)CC5)C[C@H]4/C=C\CCCCC[C@H](NC(=O)OC4CCCCC4)C(=O)N2C1)O3`
Given back: 0.005

Asked: Next entry: `Cc1nc2ccc(Cl)cc2c2c1O[C@]1(CC2)C[C@H]2C(=O)N[C@]3(C(=O)NS(=O)(=O)C4(C)CC4)C[C@H]3/C=C\CCCCC[C@H](NC(=O)OC3CCCCC3)C(=O)N2C1`
Given back: 0.009
